FYI, the data here is from patent US10925971B2.

Biological target: Macaca fascicularis PRLR (mfPRLR.mmh; SEQ ID NO:403)
Sequence (as listed by the source): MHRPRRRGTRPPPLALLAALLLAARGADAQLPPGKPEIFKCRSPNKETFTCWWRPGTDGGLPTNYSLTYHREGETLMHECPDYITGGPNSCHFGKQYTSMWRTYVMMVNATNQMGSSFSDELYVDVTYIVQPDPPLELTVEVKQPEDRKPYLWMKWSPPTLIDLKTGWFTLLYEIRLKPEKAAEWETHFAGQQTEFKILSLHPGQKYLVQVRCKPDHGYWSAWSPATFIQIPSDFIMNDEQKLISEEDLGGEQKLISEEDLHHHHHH
Test: Surface plasmon resonance (Biacore T200), antibody-capture format
Assay type: binding
Conditions: 37° C., analyte mfPRLR.mmh
value kind: kd
Hi, when you answer, please include the unit after the number. Thanks!

Go through the items and report each one's kd.
1. H1H6774P: fully human anti-PRLR antibody, human IgG1 Fc; HCVR/LCVR SEQ ID NOs 34/42 (antibody, V domains shown) VH: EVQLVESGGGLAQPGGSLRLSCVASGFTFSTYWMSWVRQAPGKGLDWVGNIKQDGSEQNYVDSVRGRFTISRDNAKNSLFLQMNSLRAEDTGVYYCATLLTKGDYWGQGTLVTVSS VL: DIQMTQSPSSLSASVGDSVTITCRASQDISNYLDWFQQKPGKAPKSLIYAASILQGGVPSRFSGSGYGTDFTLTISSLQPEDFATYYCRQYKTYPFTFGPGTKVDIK
2. H1H6976N: anti-PRLR antibody, human IgG1 Fc form of H2M6976N of Table 1; HCVR/LCVR SEQ ID NOs 386/394 (antibody, V domains shown, human IgG1 Fc) VH: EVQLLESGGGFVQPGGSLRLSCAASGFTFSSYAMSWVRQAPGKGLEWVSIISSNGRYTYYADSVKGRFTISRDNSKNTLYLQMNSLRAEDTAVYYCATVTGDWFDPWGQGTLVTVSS VL: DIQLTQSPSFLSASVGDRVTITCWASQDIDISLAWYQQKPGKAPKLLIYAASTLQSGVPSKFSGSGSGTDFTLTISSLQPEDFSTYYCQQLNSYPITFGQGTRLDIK
3. H1H6795P: fully human anti-PRLR antibody, human IgG1 Fc; HCVR/LCVR SEQ ID NOs 162/170 (antibody, V domains shown) VH: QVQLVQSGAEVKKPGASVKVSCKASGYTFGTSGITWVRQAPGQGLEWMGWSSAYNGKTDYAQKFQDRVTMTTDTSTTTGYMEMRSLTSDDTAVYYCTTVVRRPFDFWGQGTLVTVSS VL: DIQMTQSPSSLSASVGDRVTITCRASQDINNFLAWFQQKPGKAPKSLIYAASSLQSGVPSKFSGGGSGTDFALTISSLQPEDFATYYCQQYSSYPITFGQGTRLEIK

A.
1. 0.00361 s⁻¹
2. 0.00316 s⁻¹
3. 0.00599 s⁻¹

Go through the items and report each one's kd.
1. H1H6762P: fully human anti-PRLR antibody, human IgG1 Fc; HCVR/LCVR SEQ ID NOs 2/10 (antibody, V domains shown) VH: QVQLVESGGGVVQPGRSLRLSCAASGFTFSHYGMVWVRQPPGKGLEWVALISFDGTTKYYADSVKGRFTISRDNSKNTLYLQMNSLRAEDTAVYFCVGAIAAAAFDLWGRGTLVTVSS VL: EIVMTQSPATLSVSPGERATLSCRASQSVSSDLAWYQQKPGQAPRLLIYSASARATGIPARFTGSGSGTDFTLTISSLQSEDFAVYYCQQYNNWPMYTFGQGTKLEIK
2. H1H6801P: fully human anti-PRLR antibody, human IgG1 Fc; HCVR/LCVR SEQ ID NOs 210/218 (antibody, V domains shown) VH: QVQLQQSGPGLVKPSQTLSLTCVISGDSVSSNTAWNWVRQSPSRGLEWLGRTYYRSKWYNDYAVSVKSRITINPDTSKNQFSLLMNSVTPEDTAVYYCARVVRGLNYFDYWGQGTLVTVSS VL: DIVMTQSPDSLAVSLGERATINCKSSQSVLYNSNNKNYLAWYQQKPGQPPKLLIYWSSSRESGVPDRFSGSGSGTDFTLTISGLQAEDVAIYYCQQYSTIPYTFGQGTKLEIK
3. H1H6785P: fully human anti-PRLR antibody, human IgG1 Fc; HCVR/LCVR SEQ ID NOs 98/106 (antibody, V domains shown) VH: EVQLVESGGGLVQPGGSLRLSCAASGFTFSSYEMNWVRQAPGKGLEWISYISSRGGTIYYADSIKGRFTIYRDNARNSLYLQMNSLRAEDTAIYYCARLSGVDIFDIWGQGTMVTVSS VL: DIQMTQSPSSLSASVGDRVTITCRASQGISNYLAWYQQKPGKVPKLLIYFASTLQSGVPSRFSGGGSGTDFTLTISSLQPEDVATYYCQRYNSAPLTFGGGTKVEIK
4. H1H6792P: fully human anti-PRLR antibody, human IgG1 Fc; HCVR/LCVR SEQ ID NOs 130/138 (antibody, V domains shown) VH: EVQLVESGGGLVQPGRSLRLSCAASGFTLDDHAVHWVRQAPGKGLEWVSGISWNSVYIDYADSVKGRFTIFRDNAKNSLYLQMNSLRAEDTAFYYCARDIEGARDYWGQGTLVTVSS VL: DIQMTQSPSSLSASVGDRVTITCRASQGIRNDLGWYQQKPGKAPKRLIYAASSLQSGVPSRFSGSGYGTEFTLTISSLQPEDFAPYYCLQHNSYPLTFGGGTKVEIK
5. H1H6958N2: anti-PRLR antibody, receptor blocking, human IgG1 Fc form of H2M6958N2 of Table 1; HCVR/LCVR SEQ ID NOs 290/298 (antibody, V domains shown) VH: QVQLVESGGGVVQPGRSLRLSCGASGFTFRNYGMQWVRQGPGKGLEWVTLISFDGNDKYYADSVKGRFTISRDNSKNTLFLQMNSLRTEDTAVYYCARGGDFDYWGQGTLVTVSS VL: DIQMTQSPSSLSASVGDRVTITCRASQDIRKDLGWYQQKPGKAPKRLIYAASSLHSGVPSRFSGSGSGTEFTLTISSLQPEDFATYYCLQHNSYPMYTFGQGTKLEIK

A.
0.000558 s⁻¹
0.00771 s⁻¹
0.00045 s⁻¹
0.00286 s⁻¹
0.00134 s⁻¹
